The reported numbers originate from ChEMBL document CHEMBL3120136.

Assay: Aqueous solubility of the compound at pH 6.5 by modified shake-flask method
Assay type: physicochemical
READOUT: solubility thermodynamic

# count of solved cases: 3
{"MOLECULE": "CC(C)(C)OC(=O)N[C@H]1CCCCC/C=C\\[C@@H]2C[C@@]2(C(=O)NS(=O)(=O)C2CC2)NC(=O)[C@@H]2C[C@@H](OC(=O)N3Cc4ccccc4C3)CN2C1=O", "solubility thermodynamic": "702 µg/mL"}
{"MOLECULE": "CC(C)(C)OC(=O)N[C@H]1CCCCC/C=C\\[C@@H]2C[C@@]2(C(=O)NS(=O)(=O)C2CC2)NC(=O)[C@@H]2C[C@@H](OC(=O)N3Cc4cccc(F)c4C3)CN2C1=O [DANOPREVIR]", "solubility thermodynamic": "548 µg/mL"}
{"MOLECULE": "CC(C)(C)OC(=O)N[C@H]1CCCCC/C=C\\[C@@H]2C[C@@]2(C(=O)NS(=O)(=O)C2CC2)NC(=O)[C@@H]2C[C@@H](OC(=O)N3CCc4ccccc4C3)CN2C1=O", "solubility thermodynamic": "812 µg/mL"}

What measured solubility thermodynamic goes with "CN(C)S(=O)(=O)NC(=O)[C@@]12C[C@H]1/C=C\CCCCC[C@H](NC(=O)OC(C)(C)C)C(=O)N1C[C@H](OC(=O)N3Cc4ccccc4C3)C[C@H]1C(=O)N2" ?
165 µg/mL

---

Test: Cytotoxicity against human MT4 cells
Assay type: cell-based
READOUT: CC50 (µM)
Enter your answer as a number in µM; do not include the unit.

What measured CC50 goes with CC(C)(C)OC(=O)N[C@H]1CCCCC/C=C\[C@@H]2C[C@@]2(C(=O)NS(=O)(=O)C2CC2)NC(=O)[C@@H]2C[C@@H](OC(=O)N3Cc4cccc(F)c4C3)CN2C1=O [DANOPREVIR] ?
54

---

Assay: Efflux ratio of permeability from basolateral to apical side over apical to basolateral side in human Caco2 cells
Assay type: ADME, cell-based
Conditions: Caco-2
Examples of compounds with documented efflux ratio follow.

# count of solved cases: 3
{"COMPOUND": "CN(C)S(=O)(=O)NC(=O)[C@@]12C[C@H]1/C=C\\CCCCC[C@H](NC(=O)OC(C)(C)C)C(=O)N1C[C@H](OC(=O)N3Cc4ccccc4C3)C[C@H]1C(=O)N2", "efflux ratio": "> 2"}
{"COMPOUND": "CC(C)(C)OC(=O)N[C@H]1CCCCC/C=C\\[C@@H]2C[C@@]2(C(=O)NS(=O)(=O)C2CC2)NC(=O)[C@@H]2C[C@@H](OC(=O)N3Cc4cccc(F)c4C3)CN2C1=O [DANOPREVIR]", "efflux ratio": "> 2"}
{"COMPOUND": "CC(C)(C)OC(=O)N[C@H]1CCCCC/C=C\\[C@@H]2C[C@@]2(C(=O)NS(=O)(=O)C2CC2)NC(=O)[C@@H]2C[C@@H](OC(=O)N3CCc4ccccc4C3)CN2C1=O", "efflux ratio": "> 2"}

Alright, here's another compound for you.
What measured efflux ratio goes with "CC(C)(C)OC(=O)N[C@H]1CCCCC/C=C\[C@@H]2C[C@@]2(C(=O)NS(=O)(=O)C2CC2)NC(=O)[C@@H]2C[C@@H](OC(=O)N3Cc4ccccc4C3)CN2C1=O" ?
> 2

---

Tested on: Hepatitis C virus
Experiment: Antiviral activity against Hepatitis C virus genotype 2 infected in human HuH7 cells assessed as decrease in replicon RNA level after 2 days by TaqMan Gold RT-PCR analysis
Type: functional, organism-based, Hepacivirus hominis
Settings: genotype 2, Huh-7, 48 h
READOUT: EC50 (nM)
Enter your answer as a number in nM; do not include the unit.

What measured EC50 goes with "CC(C)(C)OC(=O)N[C@H]1CCCCC/C=C\[C@@H]2C[C@@]2(C(=O)NS(=O)(=O)C2CC2)NC(=O)[C@@H]2C[C@@H](OC(=O)N3Cc4cccc(F)c4C3)CN2C1=O" ?
20
